Target: human transferrin (Tf) (Homo sapiens, UniProt P02787)
Sequence (P02787 20-698): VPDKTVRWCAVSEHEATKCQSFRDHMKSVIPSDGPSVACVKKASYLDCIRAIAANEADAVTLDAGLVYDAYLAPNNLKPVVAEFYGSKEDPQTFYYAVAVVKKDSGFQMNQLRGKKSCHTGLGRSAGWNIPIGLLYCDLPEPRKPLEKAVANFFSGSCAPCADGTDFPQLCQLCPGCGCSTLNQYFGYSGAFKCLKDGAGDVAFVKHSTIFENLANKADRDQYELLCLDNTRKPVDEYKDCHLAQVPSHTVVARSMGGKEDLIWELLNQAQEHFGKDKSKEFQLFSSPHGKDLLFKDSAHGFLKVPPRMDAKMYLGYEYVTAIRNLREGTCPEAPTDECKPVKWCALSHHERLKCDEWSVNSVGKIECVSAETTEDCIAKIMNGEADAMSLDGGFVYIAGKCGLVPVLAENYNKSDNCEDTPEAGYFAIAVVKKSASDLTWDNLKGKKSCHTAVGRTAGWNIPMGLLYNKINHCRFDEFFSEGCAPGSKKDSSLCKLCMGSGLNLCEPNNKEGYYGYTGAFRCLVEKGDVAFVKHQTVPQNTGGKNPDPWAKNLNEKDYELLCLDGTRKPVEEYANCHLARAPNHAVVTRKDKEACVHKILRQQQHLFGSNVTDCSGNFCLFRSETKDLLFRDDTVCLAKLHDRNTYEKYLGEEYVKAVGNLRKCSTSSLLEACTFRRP
MEASURED_METRIC: Kd

CNCCC(Oc1ccc(C(F)(F)F)cc1)c1ccccc1 (stereo not shown) [Fluoxetine]; 6.9 µM

Data origin, for the record: paper PMC8928501
